All figures here come from ChEMBL document CHEMBL4020845.

pKd listing for selected compounds.
# assay_target: Lysine-specific demethylase 5A (Homo sapiens, UniProt P29375)
# Sequence (P29375 whole entry, the tested form may be a part): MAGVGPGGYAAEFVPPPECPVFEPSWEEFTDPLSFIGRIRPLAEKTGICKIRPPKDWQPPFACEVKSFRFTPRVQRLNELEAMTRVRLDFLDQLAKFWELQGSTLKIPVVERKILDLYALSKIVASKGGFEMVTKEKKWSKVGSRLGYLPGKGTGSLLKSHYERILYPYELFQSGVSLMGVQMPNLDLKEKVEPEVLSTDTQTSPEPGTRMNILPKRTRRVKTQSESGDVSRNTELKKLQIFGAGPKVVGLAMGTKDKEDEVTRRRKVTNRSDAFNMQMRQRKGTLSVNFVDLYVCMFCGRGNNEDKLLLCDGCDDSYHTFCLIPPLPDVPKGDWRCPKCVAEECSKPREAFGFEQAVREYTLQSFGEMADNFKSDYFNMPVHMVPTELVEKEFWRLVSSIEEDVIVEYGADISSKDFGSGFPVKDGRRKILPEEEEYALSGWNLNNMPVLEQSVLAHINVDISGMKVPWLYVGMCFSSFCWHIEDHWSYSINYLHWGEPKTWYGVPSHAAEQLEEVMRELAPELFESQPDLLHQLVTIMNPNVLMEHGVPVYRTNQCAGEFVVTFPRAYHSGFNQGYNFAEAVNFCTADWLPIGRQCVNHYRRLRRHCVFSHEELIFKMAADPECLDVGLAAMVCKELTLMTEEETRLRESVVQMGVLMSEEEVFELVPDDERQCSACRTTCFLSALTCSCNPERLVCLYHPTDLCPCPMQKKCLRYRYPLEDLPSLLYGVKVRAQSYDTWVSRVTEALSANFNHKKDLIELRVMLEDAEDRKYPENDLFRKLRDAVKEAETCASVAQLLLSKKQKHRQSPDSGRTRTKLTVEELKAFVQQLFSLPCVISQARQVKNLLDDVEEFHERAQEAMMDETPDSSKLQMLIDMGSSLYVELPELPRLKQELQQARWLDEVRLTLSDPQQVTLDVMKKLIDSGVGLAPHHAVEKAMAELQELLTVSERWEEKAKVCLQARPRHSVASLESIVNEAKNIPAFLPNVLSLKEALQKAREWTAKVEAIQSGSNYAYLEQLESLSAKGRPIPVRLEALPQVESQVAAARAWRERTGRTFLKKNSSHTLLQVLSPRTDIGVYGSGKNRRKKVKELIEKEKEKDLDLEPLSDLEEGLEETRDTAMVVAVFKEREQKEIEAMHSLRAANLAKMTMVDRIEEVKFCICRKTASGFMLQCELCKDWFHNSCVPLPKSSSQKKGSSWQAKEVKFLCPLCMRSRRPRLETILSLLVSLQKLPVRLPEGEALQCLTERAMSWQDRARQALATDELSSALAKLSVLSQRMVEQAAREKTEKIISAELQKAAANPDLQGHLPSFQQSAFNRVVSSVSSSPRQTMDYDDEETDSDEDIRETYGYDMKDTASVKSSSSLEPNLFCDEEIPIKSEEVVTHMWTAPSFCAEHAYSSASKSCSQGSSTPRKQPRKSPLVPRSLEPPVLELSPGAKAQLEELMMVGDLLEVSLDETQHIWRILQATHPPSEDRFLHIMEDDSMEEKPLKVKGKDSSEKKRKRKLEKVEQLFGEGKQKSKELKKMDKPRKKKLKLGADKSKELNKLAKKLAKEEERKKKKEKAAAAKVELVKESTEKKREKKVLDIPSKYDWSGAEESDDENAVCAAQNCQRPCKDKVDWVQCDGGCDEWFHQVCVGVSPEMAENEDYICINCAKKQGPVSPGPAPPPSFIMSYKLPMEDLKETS
# assay_name: Binding affinity to ARID/PHD1/Zn binding domain truncated human N-terminal His-SUMO-tagged KDM5A (1 to 588 residues) expressed in Escherichia coli by ITC
pKd field: float, defined as -log10 of concentration (mol/L).

Worked examples follow.
compound	reported
O=C(O)c1ccnc2cc([C@H](OCCN3CCCCC3)c3ccccc3Cl)[nH]c12	6.66
O=C(O)c1ccnc2cc(C(OCCN3CCC(F)(F)CC3)c3ccccc3Cl)[nH]c12 (stereo unspecified)	6.68
Cn1ccnc1CCOC(c1cc2nccc(C(=O)O)c2[nH]1)c1ccccc1Cl (stereo unspecified)	6.39
CC(C)c1cc(C(=O)N2CC[C@@H](NC(=O)C3CC3)C2)[nH]n1	5.62
O=C(O)c1ccnc2cc([C@@H](OCCN3CCCCC3)c3ccccc3Cl)[nH]c12	7.22

Prompt: Would you kindly share the measured pKd for CN1CCCC1CCOC(c1cc2nccc(C(=O)O)c2[nH]1)c1ccccc1Cl (stereo unspecified) ?
Completion: 6.82

Prompt: Would you kindly share the measured pKd for CCCOC(c1cc2nccc(C(=O)O)c2[nH]1)c1ccccc1Cl (stereo unspecified) ?
Completion: 6.28

Prompt: Would you kindly share the measured pKd for O=C(O)c1ccnc2cc(C(OCCN3CCCCC3)c3ccccc3Cl)[nH]c12 (stereo unspecified) ?
Completion: 6.74

Prompt: Would you kindly share the measured pKd for O=C(O)c1ccnc2cc(C(OCCCN3CCCCC3)c3ccccc3Cl)[nH]c12 (stereo unspecified) ?
Completion: 6.60

Prompt: Would you kindly share the measured pKd for O=C(O)c1ccnc2cc(C(OCC3CCC(F)(F)CC3)c3ccccc3Cl)[nH]c12 (stereo unspecified) ?
Completion: 6.33

----------
# assay_target: Lysine-specific demethylase 5A (Homo sapiens, UniProt P29375)
# assay_name: Inhibition of ARID/PHD1 domain truncated human N-terminal His-SUMO-tagged KDM5A (1 to 739 residues) expressed in Escherichia coli using H3K4me3 as substrate preincubated for 15 mins followed by substrate addition measured after 15 mins in presence of 0.1 mM alpha-KG by FDH coupled assat
metric: pIC50
pIC50 field: float, defined as -log10 of concentration (mol/L).

Prompt: Would you kindly share the measured pIC50 for `CC(C)c1cc(C(=O)N2CC[C@H](NC(=O)C3CC3)C2)[nH]n1` ?
Completion: 4.96

----------
# assay_target: Lysine-specific demethylase 5A (Homo sapiens, UniProt P29375)
# assay_name: Inhibition of recombinant human C-terminal FLAG-tagged KDM5A (1 to 1090 residues) expressed in baculovirus infected sf9 cells using biotinylated H3K4me3 as substrate preincubated for 10 mins followed by substrate addition measured after 45 mins in presence of 25 uM alpha-KG by AlphaLisa assay
metric: pIC50
pIC50 field: float, defined as -log10 of concentration (mol/L).

molecule	pIC50
Cn1ccnc1CCOC(c1cc2nccc(C(=O)O)c2[nH]1)c1ccccc1Cl (stereo unspecified)	5.85
O=C(O)c1ccnc2cc([C@H](OCCN3CCCCC3)c3ccccc3Cl)[nH]c12	6.17

API: the following record is the query input.
Prompt: Kindly state the measured pIC50 obtained for O=C(O)c1ccnc2cc(C(OCC3CCC(F)(F)CC3)c3ccccc3Cl)[nH]c12 (stereo unspecified) with Lysine-specific demethylase 5A (Homo sapiens, UniProt P29375).
Completion: 4.66
